Hey, just so you know, these numbers are from paper PMC6332339.

Catalogue of melting point values
recorded metric: melting point

[
  {
    "smiles input": "CCCC(CCC)C(=O)N/N=C1\\C(=O)N(C)c2ccccc21",
    "endpoint result": "154 to 156 °C"
  },
  {
    "smiles input": "CCCC(CCC)C(=O)N/N=C1\\C(=O)Nc2ccccc21",
    "endpoint result": "175 to 176 °C"
  },
  {
    "smiles input": "CCCC(CCC)C(=O)N/N=C1\\C(=O)Nc2ccc(Br)cc21",
    "endpoint result": "172 to 173 °C"
  },
  {
    "smiles input": "CCCC(CCC)C(=O)N/N=C1\\C(=O)N(CCBr)c2ccccc21",
    "endpoint result": "90 to 91 °C"
  },
  {
    "smiles input": "CCCC(CCC)C(=O)N/N=C1\\C(=O)N(Cc2ccccc2)c2ccccc21",
    "endpoint result": "170 to 172 °C"
  },
  {
    "smiles input": "CCCC(CCC)C(=O)N/N=C1\\C(=O)Nc2ccc(Cl)cc21",
    "endpoint result": "154 to 156 °C"
  },
  {
    "smiles input": "CCCC(CCC)C(=O)NNC(=O)C(=O)c1ccccc1NC(C)=O",
    "endpoint result": "180 to 181 °C"
  },
  {
    "smiles input": "CCCC(CCC)C(=O)N/N=C1\\C(=O)Nc2ccc(F)cc21",
    "endpoint result": "180 to 182 °C"
  }
]

====

- Test system: Jurkat human leukaemia cell line
- experimental protocol: MTT cytotoxicity assay in Jurkat cells
- Type: cell-based
- settings: Homo sapiens, 24 h treatment, mean ± SD
- Procedure: The cyto-toxicity activity was measured in vitro in HepG2, Jurkat, and HEK 293 cells using the MTT […] colorimetric assay. For comparison, 5-Fluorouracil (5-FU) was used as a standard anti-cancer drug. […] The stock concentration of the entire compound in DMSO was 10 mM and this concentration was used to prepare the working dilution. […] The optical density of the formazan product in solution was measured with a microplate reader at 540 nm. […]
recorded metric: IC50 (µM)

[
  {
    "smiles input": "CCCC(CCC)C(=O)N/N=C1\\C(=O)N(CCBr)c2ccccc21",
    "target system": "Jurkat human leukaemia cell line",
    "recorded metric": "IC50",
    "result modifier": ">",
    "endpoint result": 100
  },
  {
    "smiles input": "CN1C(=O)C(=O)c2ccccc21",
    "target system": "Jurkat human leukaemia cell line",
    "recorded metric": "IC50",
    "result modifier": "=",
    "endpoint result": 7.13
  }
]

====

- Test system: Jurkat human leukaemia cell line
- experimental protocol: MTT cytotoxicity assay in Jurkat cells
- Type: cell-based
- settings: Homo sapiens, Jurkat, 24 h, 24 h treatment, mean ± SD
This listing pairs molecules with measured log10 of IC50.
recorded metric: log10 of IC50 (log10 of the value in µM)

[
  {
    "molecule": "CCCC(CCC)C(=O)N/N=C1\\C(=O)N(C)c2ccccc21",
    "log10 of IC50": 0.50
  },
  {
    "molecule": "O=C1C(=O)N(Cc2ccccc2)c2ccccc21",
    "log10 of IC50": 0.50
  },
  {
    "molecule": "O=c1[nH]cc(F)c(=O)[nH]1 [Compound 5-FU, 5-Fluorouracil, reference compound]",
    "log10 of IC50": 1.71
  },
  {
    "molecule": "CCCC(CCC)C(=O)N/N=C1\\C(=O)Nc2ccccc21",
    "log10 of IC50": 0.50
  },
  {
    "molecule": "CCCC(CCC)C(=O)O [Compound 1, Valproic acid, reference compound]",
    "log10 of IC50": 1.90
  },
  {
    "molecule": "CCCC(CCC)C(=O)N/N=C1\\C(=O)Nc2ccc(Cl)cc21",
    "log10 of IC50": 0.46
  }
]
